tested on: SW-620; experiment: NCI-60 single dose screen, sulforhodamine B; assay type: cell-based, human; details: Colon cancer SW-620; single dose 10^−5 M
Measured Metric: GI% at 10^−5 M

# example entries with known answers
Smiles Entry	Result Value
O=c1c2ccccc2nc(COc2ccccc2)n1NS(=O)(=O)c1ccc(Cl)cc1	30.94%
O=c1c2ccccc2nc(COc2ccccc2)n1N=CC=Cc1ccccc1	– (– means GI < 10%)
O=C(CN1CCN(c2ccccc2)CC1)Nn1c(COc2ccccc2)nc2ccccc2c1=O	– (– means GI < 10%)
COc1ccc(NC(=O)CNn2c(COc3ccccc3)nc3ccccc3c2=O)cc1	– (– means GI < 10%)
O=C(CNn1c(COc2ccccc2)nc2ccccc2c1=O)Nc1ccccc1	– (– means GI < 10%)

SW-620 / GI% at 10^−5 M / `Cc1ccc(S(=O)(=O)Nn2c(COc3ccccc3)nc3ccccc3c2=O)cc1` : value?
– (– means GI < 10%)

----------
system: PC-3; experiment: NCI-60 single dose screen, sulforhodamine B; assay type: cell-based, human; details: Prostate cancer PC-3; single dose 10^−5 M
Measured Metric: GI% at 10^−5 M

# example entries with known answers
Compound	GI% at 10^−5 M
O=C(CNn1c(COc2ccccc2)nc2ccccc2c1=O)Nc1ccccc1 [Compound 4a]	10.95%
O=c1c2ccccc2nc(COc2ccccc2)n1NS(=O)(=O)c1ccccc1 [Compound 5a]	– (– means GI < 10%)
O=C(CN1CCN(c2ccccc2)CC1)Nn1c(COc2ccccc2)nc2ccccc2c1=O [Compound 8b]	– (– means GI < 10%)
COc1cc(C=Nn2c(COc3ccccc3)nc3ccccc3c2=O)ccc1O [Compound 6a]	– (– means GI < 10%)

GI% at 10^−5 M lookup needed for CN1CCN(CC(=O)Nn2c(COc3ccccc3)nc3ccccc3c2=O)CC1 [Compound 8a] , thanks.
– (– means GI < 10%)

----------
tested on: CCRF-CEM; assay: NCI-60 single dose screen, sulforhodamine B; type: cell-based, human; conditions: Leukaemia CCRF-CEM; single dose 10^−5 M
Measured Metric: GI% at 10^−5 M

# example entries with known answers
Compound	GI% at 10^−5 M
O=C(CN1CCN(c2ccccc2)CC1)Nn1c(COc2ccccc2)nc2ccccc2c1=O [Compound 8b]	– (– means GI < 10%)
O=C(CNn1c(COc2ccccc2)nc2ccccc2c1=O)Nc1ccc(Cl)cc1 [Compound 4c]	– (– means GI < 10%)
O=C(CNn1c(COc2ccccc2)nc2ccccc2c1=O)Nc1ccccc1 [Compound 4a]	– (– means GI < 10%)
COc1ccc(N2CCN(CC(=O)Nn3c(COc4ccccc4)nc4ccccc4c3=O)CC2)cc1 [Compound 8c]	– (– means GI < 10%)
Cc1ccc(S(=O)(=O)Nn2c(COc3ccccc3)nc3ccccc3c2=O)cc1 [Compound 5b]	– (– means GI < 10%)

GI% at 10^−5 M lookup needed for CN1CCN(CC(=O)Nn2c(COc3ccccc3)nc3ccccc3c2=O)CC1 [Compound 8a] , thanks.
10.65%

Next record, please: O=c1c2ccccc2nc(COc2ccccc2)n1NS(=O)(=O)c1ccc(Cl)cc1 [Compound 5c]
– (– means GI < 10%)

----------
Measured melting point accompanies every entry in the list below.

Smiles Entry	Measured Metric	Result Value
O=c1c2ccccc2nc(COc2ccccc2)n1N=CC=Cc1ccccc1	melting point	211 to 213 °C
CN1CCN(CC(=O)Nn2c(COc3ccccc3)nc3ccccc3c2=O)CC1	melting point	158 to 160 °C
O=c1c2ccccc2nc(COc2ccccc2)n1NS(=O)(=O)c1ccccc1	melting point	114 to 116 °C
O=C(CNn1c(COc2ccccc2)nc2ccccc2c1=O)Nc1ccccc1	melting point	135 to 137 °C
COc1cc(C=Nn2c(COc3ccccc3)nc3ccccc3c2=O)ccc1O	melting point	191 to 193 °C
COc1ccc(NC(=O)CNn2c(COc3ccccc3)nc3ccccc3c2=O)cc1	melting point	146 to 148 °C
COc1ccc(N2CCN(CC(=O)Nn3c(COc4ccccc4)nc4ccccc4c3=O)CC2)cc1	melting point	100 to 102 °C
O=C(CN1CCN(c2ccccc2)CC1)Nn1c(COc2ccccc2)nc2ccccc2c1=O	melting point	115 to 117 °C
O=c1c2ccccc2nc(COc2ccccc2)n1NS(=O)(=O)c1ccc(Cl)cc1	melting point	208 to 210 °C
O=C(CNn1c(COc2ccccc2)nc2ccccc2c1=O)Nc1ccc(Cl)cc1	melting point	165 to 167 °C

Lab note: next compound to report on.
melting point lookup needed for `Cc1ccc(S(=O)(=O)Nn2c(COc3ccccc3)nc3ccccc3c2=O)cc1` , thanks.
140 to 142 °C

----------
system: SF-539; assay: NCI-60 single dose screen, sulforhodamine B; format: cell-based, human; details: CNS cancer SF-539; single dose 10^−5 M
Measured Metric: GI% at 10^−5 M

Molecule	GI% at 10^−5 M
O=C(CNn1c(COc2ccccc2)nc2ccccc2c1=O)Nc1ccc(Cl)cc1 [Compound 4c]	– (– means GI < 10%)
O=c1c2ccccc2nc(COc2ccccc2)n1N=CC=Cc1ccccc1 [Compound 6b]	– (– means GI < 10%)
COc1cc(C=Nn2c(COc3ccccc3)nc3ccccc3c2=O)ccc1O [Compound 6a]	– (– means GI < 10%)
O=C(CNn1c(COc2ccccc2)nc2ccccc2c1=O)Nc1ccccc1 [Compound 4a]	– (– means GI < 10%)
Cc1ccc(S(=O)(=O)Nn2c(COc3ccccc3)nc3ccccc3c2=O)cc1 [Compound 5b]	– (– means GI < 10%)
COc1ccc(NC(=O)CNn2c(COc3ccccc3)nc3ccccc3c2=O)cc1 [Compound 4b]	– (– means GI < 10%)

Lab note: next molecule to report on.
GI% at 10^−5 M lookup needed for CN1CCN(CC(=O)Nn2c(COc3ccccc3)nc3ccccc3c2=O)CC1 [Compound 8a] , thanks.
11.37%

----------
system: UO-31; experiment: NCI-60 single dose screen, sulforhodamine B; format: cell-based, human; details: Renal cancer UO-31; single dose 10^−5 M
Where GI% at 10^−5 M equals or exceeds 20%, the correct label is 1; where it does not, the label is 0.

Examples from the recorded data:
Molecule	Label
COc1ccc(N2CCN(CC(=O)Nn3c(COc4ccccc4)nc4ccccc4c3=O)CC2)cc1 [Compound 8c]	0
Cc1ccc(S(=O)(=O)Nn2c(COc3ccccc3)nc3ccccc3c2=O)cc1 [Compound 5b]	0
O=c1c2ccccc2nc(COc2ccccc2)n1N=CC=Cc1ccccc1 [Compound 6b]	0

Quick check: does O=C(CNn1c(COc2ccccc2)nc2ccccc2c1=O)Nc1ccccc1 [Compound 4a] have GI% at 10^−5 M greater than or equal to 20%?
1

Next record, please: O=c1c2ccccc2nc(COc2ccccc2)n1NS(=O)(=O)c1ccc(Cl)cc1 [Compound 5c]
1

Next record, please: O=c1c2ccccc2nc(COc2ccccc2)n1NS(=O)(=O)c1ccccc1 [Compound 5a]
0

Next record, please: COc1ccc(NC(=O)CNn2c(COc3ccccc3)nc3ccccc3c2=O)cc1 [Compound 4b]
0

Next record, please: CN1CCN(CC(=O)Nn2c(COc3ccccc3)nc3ccccc3c2=O)CC1 [Compound 8a]
1

Next record, please: COc1cc(C=Nn2c(COc3ccccc3)nc3ccccc3c2=O)ccc1O [Compound 6a]
0

----------
tested on: HCT-15; assay: NCI-60 single dose screen, sulforhodamine B; assay type: cell-based, human; conditions: Colon cancer HCT-15; single dose 10^−5 M
Measured Metric: GI% at 10^−5 M

# example entries with known answers
Smiles Entry	Result Value
O=C(CNn1c(COc2ccccc2)nc2ccccc2c1=O)Nc1ccccc1	– (– means GI < 10%)
O=C(CN1CCN(c2ccccc2)CC1)Nn1c(COc2ccccc2)nc2ccccc2c1=O	– (– means GI < 10%)
Cc1ccc(S(=O)(=O)Nn2c(COc3ccccc3)nc3ccccc3c2=O)cc1	– (– means GI < 10%)
O=c1c2ccccc2nc(COc2ccccc2)n1N=CC=Cc1ccccc1	23.15%
O=C(CNn1c(COc2ccccc2)nc2ccccc2c1=O)Nc1ccc(Cl)cc1	– (– means GI < 10%)

Lab note: next compound to report on.
HCT-15 / GI% at 10^−5 M / `COc1cc(C=Nn2c(COc3ccccc3)nc3ccccc3c2=O)ccc1O` : value?
– (– means GI < 10%)

----------
test system: U251; test: NCI-60 single dose screen, sulforhodamine B; format: cell-based, human; conditions: CNS cancer U251; single dose 10^−5 M
Measured Metric: GI% at 10^−5 M

# example entries with known answers
Smiles Entry	Assayed Target	GI% at 10^−5 M
O=C(CN1CCN(c2ccccc2)CC1)Nn1c(COc2ccccc2)nc2ccccc2c1=O	U251	– (– means GI < 10%)
O=c1c2ccccc2nc(COc2ccccc2)n1NS(=O)(=O)c1ccc(Cl)cc1	U251	12.24%
O=c1c2ccccc2nc(COc2ccccc2)n1N=CC=Cc1ccccc1	U251	– (– means GI < 10%)
O=c1c2ccccc2nc(COc2ccccc2)n1NS(=O)(=O)c1ccccc1	U251	– (– means GI < 10%)
CN1CCN(CC(=O)Nn2c(COc3ccccc3)nc3ccccc3c2=O)CC1	U251	18.55%
Cc1ccc(S(=O)(=O)Nn2c(COc3ccccc3)nc3ccccc3c2=O)cc1	U251	– (– means GI < 10%)

Lab note: next molecule to report on.
GI% at 10^−5 M lookup needed for `COc1cc(C=Nn2c(COc3ccccc3)nc3ccccc3c2=O)ccc1O` , thanks.
– (– means GI < 10%)
